system: SNB-75 CNS; test: NCI-60 one-dose screen, 48 h (100 = growth as untreated, 0 = no growth, -100 = all killed); details: 10 µM
Compounds without any hit were thinned out: in the full panel of roughly 83,000, 20% have a hit.
Give measured growth for each item. Keep answers brief.
One number for each entry, in %.

Some molecules with recorded growth:
| molecule | unit string | observed |
| --- | --- | --- |
| CCc1ccc(-c2nnc(COc3ccc(-c4nc5ccc(C)cc5[nH]4)cc3OC)o2)cc1 | % | -50 |
| Cc1ccc(S(=O)(=O)N2CCc3ccccc3CC2)cc1 | % | 78.6 |
| Fc1ccc(-c2cc(C(Cl)Cl)no2)cc1 | % | 72.4 |
| O=NN(CC(=O)N/N=C/C=C\c1ccccc1)CC(=O)N/N=C/C=C/c1ccccc1 | % | 72.9 |

Provide growth values for the following items, in order.
1. CCCc1c(C)nc2scc(-c3ccc(Cl)cc3)n2c1=O
2. C(=C\c1nc2ccccc2s1)/c1ccc(N2CCOCC2)s1

Reply text:
1: 97.9; 2: 99.6

Provide growth values for the following items, in order.
1. CNCCCNCCCN1C(=O)c2ccc3c4c(ccc(c24)C1=O)C(=O)N(CCCNCc1ccccc1OC)C3=O
2. COc1ccc(/C=C2\CCC3C(CCCC34OCCO4)C2=O)cc1 (centres undefined)

Reply text:
[15.9, 105]

Provide growth values for the following items, in order.
1. c1ccc(C2CCCCC2)c(OCCCCCN2CCNCC2)c1
2. COc1ccc(S(=O)(=O)Nc2cc(/C=C\c3cc(OC)c(OC)c(OC)c3)ccc2OC)cc1
3. O=S(=O)(O)C1(O)CCCCC1
4. CCOC(=O)c1ccc(N(C=O)CCC(=O)CCl)cc1
5. C=CCOc1ccc2c(c1)CC=C1[C@@H]2CC[C@]2(C)C(=O)/C(=N/O)C[C@@H]12
6. COc1ccc2nc(/C=C/c3ccc(N(C)C)cc3)sc2c1

Reply text:
48.3
-2.76
82.3
26.5
115
92.3

Provide growth values for the following items, in order.
1. CN(C)Cc1cccs1
2. C=CCn1c(C)nc2cc(Nc3nc(Nc4ccc5nc(C)n(CC=C)c5c4)c4ccccc4n3)ccc21
3. CC(C)/C=N/NC(N)=S
4. COc1ccccc1S(=O)(=O)Nc1ccc2c(c1)CN(C)C(=O)N2

Reply text:
93.9
-96.7
81.3
17.5

Inquiry: # growth lookup, item COc1cccc2c1C(=O)c1c(O)c3c(c(O)c1C2=O)C[C@@](O)(C(=O)COC(=O)c1cccnc1)C[C@@H]3OC1CC(N)C(O)C(C)O1 (some centres undefined)
Reply text: -75
